# Tested on: windgrass (Apera spica-venti)
# run_description: Test D pre-/postemergence controlled growth environment herbicide test
# Assay type: in vivo
# measurement_context: Preemergence, 125 g ai/ha, scale 0 to 100
The following compounds are listed with their measured Plant response rating values.
When you answer, write just the number.

Some solved cases for reference:
Look up windgrass (Apera spica-venti) data: Plant response rating of Cc1cc(=O)n(-c2ccc(F)cc2)nc1Cc1ccnc(C(F)(F)F)c1 [Compound 1] , then report it.
100

Retrieve Plant response rating on windgrass (Apera spica-venti); query Cc1cc(=O)n(-c2ccc(C(F)(F)F)cc2)nc1Cc1ccnc(C(F)(F)F)c1 [Compound 2]
60

Report Plant response rating on windgrass (Apera spica-venti) for this entry: Cc1cc(=O)n(-c2ccc(F)cc2)nc1Oc1ccnc(C(F)(F)F)c1 [Compound 14]
35

As a next step, examine the compound that follows.
Consider the compound COc1cc(=O)n(-c2ccc(F)cc2)nc1Cc1ccnc(C(F)(F)F)c1 [Compound 17] tested on windgrass (Apera spica-venti); state its Plant response rating.
100

Taken from patent US10202361B2.
